So I've got a bunch of compounds here, and I need their CC50 at 3 days values.
experiment: in vitro; details: human
Answers are plain numbers, in µM.

Recorded CC50 at 3 days, per entry:
> print(dat)
                            chemical.smiles    readout.type  result.unit  result.number
1  C[C@@H]1c2ccccc2CCN1C(=O)c1cc(C2CC2)n2nc(-c3ccc([C@H]4C[C@H](CC(N)=O)C4)cc3F)cc2n1  CC50 at 3 days           µM           29.5
2  CC(C)CS(=O)(=O)NC(=O)[C@H]1C[C@@H]1c1ccc(-c2cc3nc(C(=O)N4CCc5ccccc5[C@H]4C)cc(C4CC4)n3n2)c(F)c1  CC50 at 3 days           µM           52.1
3  C[C@@H]1c2ccccc2CCN1C(=O)c1cc(C2CC2)n2nc(-c3ccc([C@H]4C[C@@H]4c4nnn[nH]4)cc3F)cc2n1  CC50 at 3 days           µM             44
4  C[C@@H]1c2ccccc2CCN1C(=O)c1cc(C2CC2)n2nc(-c3ccc([C@H]4C[C@@H]4C(=O)NC#N)cc3F)cc2n1  CC50 at 3 days           µM           49.8
5  C[C@@H]1c2ccccc2CCN1C(=O)c1cc(C2CC2)n2nc(-c3ccc([C@H]4C[C@@H]4c4noc(=O)[nH]4)cc3F)cc2n1  CC50 at 3 days           µM           41.8

Quick batch: CC50 at 3 days for everything below.
1. CNC(=O)C[C@H]1C[C@@H](c2ccc(-c3cc4nc(C(=O)N5CCc6ccccc6[C@H]5C)cc(C5CC5)n4n3)c(F)c2)C1
2. C[C@@H]1c2ccccc2CCN1C(=O)c1cc(C2CC2)n2nc(-c3ccc([C@H]4C[C@@H]4C(=O)N(C)C)cc3F)cc2n1

**Result**
1. 23.9
2. 51.8
